tested on: Streptococcus pneumoniae BS 3; test: In vitro antibacterial activity, MIC, broth microdilution; assay type: cell-based; details: Streptococcus pneumoniae, BS3; S. pneumoniae BS 3; MHB + 5% horse serum; 37° C., 18 hours; read-out: minimum inhibiting concentration MIC
readout: MIC (µg/mL)
Could you give me the number in µg/mL? Just the number is fine.

For CC[C@H]1OC(=O)[C@H](C)[C@@H](O[C@H]2C[C@@](C)(OC)[C@@H](O)[C@H](C)O2)[C@H](C)[C@@H](O[C@@H]2O[C@H](C)C[C@H](N(C)C)[C@H]2O)[C@](C)(O)C[C@@H](C)/C(=N\OCCNCCCCCCNCc2ccccc2[N+](=O)[O-])[C@H](C)[C@@H](O)[C@]1(C)O the compound record lists MIC as 0.0039

For CC[C@H]1OC(=O)[C@H](C)[C@@H](O[C@H]2C[C@@](C)(OC)[C@@H](O)[C@H](C)O2)[C@H](C)[C@@H](O[C@@H]2O[C@H](C)C[C@H](N(C)C)[C@H]2O)[C@](C)(O)C[C@@H](C)/C(=N\OCCNCCCCCCNCc2ccc(C(F)(F)F)cc2)[C@H](C)[C@@H](O)[C@]1(C)O the compound record lists MIC as 0.0156

For CC[C@H]1OC(=O)[C@H](C)[C@@H](O[C@H]2C[C@@](C)(OC)[C@@H](O)[C@H](C)O2)[C@H](C)[C@@H](O[C@@H]2O[C@H](C)C[C@H](N(C)C)[C@H]2O)[C@](C)(O)C[C@@H](C)/C(=N\OCCCCCCNCCCCCNCc2ccccc2)[C@H](C)[C@@H](O)[C@]1(C)O the compound record lists MIC as 0.25
